Reported abundance fitness values follow for various variants
B1: Histone H1t, residues 44 to 112; numbered along this chain, P22492 (parent)
chain: VSKLITEALSVSQERVGMSLVALKKALAAAGYDVEKNNSRIKLSLKSLVNKGILVQTRGTGASGSFKLS

variants of: B1; assay: abundance fitness (aPCA) (normalised: wild type 0, dead -1); higher = more abundant; growth selection in yeast, the domain comes from the species named; settings: Homo sapiens
I only need the number, thanks.

Inquiry: Name the recorded abundance fitness of the variant listed here: K51Q
Reply text: -0.065

Inquiry: Name the recorded abundance fitness of the variant listed here: D33F
Reply text: 0.243

Inquiry: Name the recorded abundance fitness of the variant listed here: G31I
Reply text: -0.316

Inquiry: Name the recorded abundance fitness of the variant listed here: S47R
Reply text: -0.087

Inquiry: Name the recorded abundance fitness of the variant listed here: A26V
Reply text: -0.064

Inquiry: Name the recorded abundance fitness of the variant listed here: K67C
Reply text: -0.096

Inquiry: Name the recorded abundance fitness of the variant listed here: S65R
Reply text: -0.285

Inquiry: Name the recorded abundance fitness of the variant listed here: R58Q
Reply text: 0.036

Inquiry: Name the recorded abundance fitness of the variant listed here: G31Y
Reply text: -0.066

Inquiry: Name the recorded abundance fitness of the variant listed here: A28G
Reply text: -0.106

Inquiry: Name the recorded abundance fitness of the variant listed here: V49H
Reply text: -0.432

Inquiry: Name the recorded abundance fitness of the variant listed here: D33K
Reply text: -0.119

Inquiry: Name the recorded abundance fitness of the variant listed here: N37G
Reply text: -0.091

Inquiry: Name the recorded abundance fitness of the variant listed here: D33I
Reply text: -0.121

Recorded values, source the Human Domainome abundance scans (Beltran et al. 2025).
